Data origin: ChEMBL document CHEMBL4513216

# run.description: Toxicity liver stage against HepG2, at 10uM
# Type: cell-based
# Set-up: test concentration 10 uM, cell line HepG2-A16-CD81EGFP
# measurement.conditions: human, HepG2-A16-CD81EGFP cells; read-out: INHIBITION
Property: cytotoxicity at 10 µM; scope: individual compounds
# output: number + unit

The examples below pair each entry with its known result.
{"columns": ["compound", "cytotoxicity at 10 µM"],
 "data": [
  ["CCc1ccc(C2CCCN2C(=O)NCC(=O)NCC(C)C)o1 (centres undefined)", "17.7%"],
  ["O=C(c1ccc(F)cc1)N1CCN2C[C@H](OCc3cccnc3)C[C@H]2C1", "-85.1%"],
  ["Cn1cc(C2COC3(CCN(C(=O)Cc4ccccc4)CC3)C2)cn1 (centres undefined)", "-108%"]
]}

Sure, the documented cytotoxicity at 10 µM for CCc1nnc2n1CCN(C(=O)CN(CC)CC)C2 is -3.14%

// cytotoxicity at 10 µM value for CCn1cc(S(=O)(=O)N2CCCC3(CC=CNC3=O)C2)cn1 (centres undefined) : -2.92%

The compound listed as O=C1[C@H]2CN(Cc3ccccc3)C[C@H]2CN1c1cncnc1 has a reported cytotoxicity at 10 µM of -4.53%

GET /value?item= COc1cccc(CC(=O)N2CC[C@H]3[C@@H]2CCC(=O)N3C)c1 &field=cytotoxicity at 10 µM returns -4.57%

Reported cytotoxicity at 10 µM ( Cc1cc2nc(CO[C@H]3CN(C)C[C@H]3F)[nH]c2cc1C ) = 2.78%

Entry Cc1cccc(CN2CCC(c3nnsc3S(C)(=O)=O)CC2)c1 — recorded cytotoxicity at 10 µM = 1.86%

So for CN1C(=O)C(C)(C)COc2ccc(NS(=O)(=O)Cc3ccccc3)cc21 , the logged cytotoxicity at 10 µM turned out to be 8.2%

cytotoxicity at 10 µM measured on CN(Cc1cnc(C(C)(C)C)nc1)Cc1nc2ccc(F)cc2[nH]1 = -12.3%

Reported cytotoxicity at 10 µM ( O=C(O)c1c[nH]c2cc(NS(=O)(=O)c3ccc(Cl)cc3F)ccc12 ) = -1.2%

Per the records, this compound ( Cc1ccccc1C(C)NC(=O)CN1CCN(Cc2cccs2)CC1 (centres undefined) ) has cytotoxicity at 10 µM equal to 48.9%

Documented cytotoxicity at 10 µM of COc1ccccc1NC(=O)NCC(O)(c1ccccc1)C1CC1 (centres undefined) : -19.5%

----------
# run.description: Toxicity liver stage against HepG2, at 10uM
# Type: cell-based
# Design: test concentration 10 uM, cell line HepG2-A16-CD81EGFP
# measurement.conditions: human, HepG2-A16-CD81EGFP cells; read-out: INHIBITION
endpoint: cytotoxicity at 10 µM (%)
Hi! Could you send only the number? It should be in %, unit omitted.

The cases that follow already have their cytotoxicity at 10 µM on record.
{"columns": ["compound", "unit.name", "cytotoxicity at 10 µM"],
 "data": [
  ["Cc1cc(C2CCCN2C(=O)NCc2ccccn2)on1 (stereo not drawn)", "%", 1.47],
  ["CC(=O)NCC(=O)N1C[C@H](OCc2cccnc2)[C@H]2COC[C@H]21", "%", -7.12],
  ["COCCNC(=O)c1ccc2c(=O)n3c(nc2c1)CCCC3", "%", 10],
  ["CS(=O)(=O)NC1CCCN(C(=O)NCc2cc[nH]n2)C1 (stereo not drawn)", "%", 4.14],
  ["Cc1cnn(CC2CN(Cc3nc(C)c(C)o3)CCO2)c1 (stereo not drawn)", "%", -3.88]
]}

CCN1CC2(CCC1=O)CCN(c1ccc(C(C)=O)cn1)CC2 has a reported cytotoxicity at 10 µM of -8.63

The compound CCc1ccsc1C(=O)N1CCN(C(=O)c2ccc(C)o2)CC1 showed cytotoxicity at 10 µM equal to 6.98

# cytotoxicity at 10 µM of OC(CN1CCCCCCC1)c1ccc(OC(F)(F)F)cc1 (stereo not drawn) = -11.2

Looking up COc1cccc2ccc(N3CCC(O)(C(=O)O)CC3)nc12 , I found its cytotoxicity at 10 µM recorded as 3.13

Reported cytotoxicity at 10 µM for Cc1cc(NC(=O)CN(CC2CCOC2)C2CC2)no1 (stereo not drawn) was 1.65

----------
Below is a list of entries, each paired with its recorded cytotoxicity at 10 µM value.
# run.description: Toxicity liver stage against HepG2, at 10uM
# Assay type: cell-based
# Design: test concentration 10 uM, cell line HepG2-A16-CD81EGFP
# measurement.conditions: human, HepG2-A16-CD81EGFP cells; read-out: INHIBITION
Numeric answer only, unit % assumed.

Past entries and their recorded results:
{"columns": ["compound", "endpoint", "unit.name", "obs.value"],
 "data": [
  ["Cc1n[nH]c(C)c1CN1CCC(c2cc(C(C)C)n[nH]2)CC1", "cytotoxicity at 10 µM", "%", -6.88],
  ["CC(=O)N1CC[C@@]2(O)CCCC[C@H]2[C@@H]1c1ccc2c(c1)OCO2", "cytotoxicity at 10 µM", "%", 15.4],
  ["O=S(=O)(Cc1ccccc1)c1nnc(N2CCCC2)s1", "cytotoxicity at 10 µM", "%", -6.27],
  ["CN1CCN(S(C)(=O)=O)Cc2cccnc21", "cytotoxicity at 10 µM", "%", -112],
  ["Cc1n[nH]c(=O)c2c(NC(=O)CN3CCOC(C)C3)oc(C)c12 (stereo not given)", "cytotoxicity at 10 µM", "%", -0.524],
  ["CC(=O)NC1CCCN(Cc2ccc(OCc3ccccn3)cc2)C1 (stereo not given)", "cytotoxicity at 10 µM", "%", 1.41],
  ["Cc1ccc(NC2CCN(C(=O)c3ccc(C(N)=O)s3)CC2)nn1", "cytotoxicity at 10 µM", "%", 1.8],
  ["O=C(Cc1cccs1)NC1(C(=O)NCC2CC2)CCCC1", "cytotoxicity at 10 µM", "%", 4.19],
  ["Cc1nc(C)n(CC2CCCCN2CCCC#N)n1 (stereo not given)", "cytotoxicity at 10 µM", "%", 6.73]
]}

# cytotoxicity at 10 µM (compound: CNC(=O)c1cnc(C=Cc2ccc(O)c(OC)c2)s1 ) is 0.23

----------
# run.description: Toxicity liver stage against HepG2, at 10uM
# Type: cell-based
# Set-up: test concentration 10 uM, cell line HepG2-A16-CD81EGFP
# measurement.conditions: human, HepG2-A16-CD81EGFP cells; read-out: INHIBITION
endpoint: cytotoxicity at 10 µM (%)
Report the value in % with no unit label.

// field: cytotoxicity at 10 µM; key: CCc1nc(CN2CCCN(C(=O)c3cc(C)on3)CC2)cs1 ; value = -7.81

Documented cytotoxicity at 10 µM of Cc1nc2c(c(=O)n1C)CCN(C(=O)Cn1cccc1)CC2 : -2.18

Record summary for Cc1nn(C)cc1C(=O)NC(CC(C)C)C(=O)Nc1cc[nH]n1 (stereo not drawn) : reported cytotoxicity at 10 µM = -2.33

For CN1CCO[C@@H]2CN(C(=O)NCc3cccc(F)c3)CC[C@@H]2C1 the compound record lists cytotoxicity at 10 µM as -111

Just so you know, measured cytotoxicity at 10 µM for Cc1ncsc1CN1C[C@@H]2CCCO[C@@H]2[C@H](N(C)C(C)C)C1 came out at 1.81

----------
# run.description: Toxicity liver stage against HepG2, at 10uM
# Type: cell-based
# Parameters: test concentration 10 uM, cell line HepG2-A16-CD81EGFP
# measurement.conditions: human, HepG2-A16-CD81EGFP cells; read-out: INHIBITION
endpoint: cytotoxicity at 10 µM (%)
Please state the figure in %; there is no need to write the unit.

Observe how each entry below is paired with its result.
{"columns": ["compound", "cytotoxicity at 10 µM [%]"],
 "data": [
  ["COCCN(C)C(=O)c1ccc2onc(-c3coc(C)n3)c2c1", -144],
  ["CN(C)[C@@H]1CO[C@H](CNC(=O)c2ccccc2)[C@H]1O", -1.9],
  ["O=C(NCCc1nnc2n1CCC2)NC1(c2cccc(F)c2)CC1", 3.07],
  ["CCc1ccsc1C(=O)NC(C#N)CC (stereo not given)", 3.15],
  ["CN(C)CCNCC1CCOC(C)(C)C1 (stereo not given)", -9.35]
]}

Input CC(C)N(Cc1ccc(C(F)(F)F)nc1)Cc1cnn(C)c1 . Output cytotoxicity at 10 µM: 1.36

Lookup result for Cc1ccc(C(=O)N2CCCn3nc(CCC(=O)O)cc3C2)cc1Cl ; measured cytotoxicity at 10 µM: -3.49

Consider CCN(Cc1ccc2c(c1)OCO2)C(=O)NC(C)Cn1cccn1 (stereo not given) . Its measured cytotoxicity at 10 µM is -2.5

Notebook: CCN1CCN(c2ccc(NC(=O)CC(C)C)c(C)c2)CC1 , cytotoxicity at 10 µM read as -8.87

Recorded result, Cc1cnn(CCCNC(=O)NCCC(=O)Nc2ccccc2)c1 , cytotoxicity at 10 µM: 2.72

cytotoxicity at 10 µM reading for CCc1nc2ccccc2c(=O)n1CC1(O)CCN(S(C)(=O)=O)CC1 : -3.5

The value of cytotoxicity at 10 µM measured for the compound Cc1noc(C)c1CNC(=O)N1Cc2ccccc2N(C)CC1C (stereo not given) turned out to be -2.42

The value of cytotoxicity at 10 µM measured for the compound CC(C)N(C)Cc1cc(=O)n2c(n1)CN(C(=O)c1cnccn1)CCC2 turned out to be -3.02

Looking up c1ccc(-c2nc(CN3CCCC(Cn4cncn4)C3)cs2)cc1 (stereo not given) , I see its cytotoxicity at 10 µM listed as -9.53

Given item CCC(=O)Nc1ccc(C(C)NC(=O)COCCOC)cc1 (stereo not given) , the value recorded as its cytotoxicity at 10 µM is -7.71
